Below, each of the compounds is paired with its reported solubility kinetic value.
TEST_CONDITIONS: buffer; pH 7.4; 200.0 µM

| COMPOUND | solubility kinetic |
| --- | --- |
| CC1CCN(C(=O)c2ccc(N3CCOCC3)c([N+](=O)[O-])c2)CC1 | > 50 µg/mL |
| Cc1ccc2nsnc2c1S(=O)(=O)Nc1ccccc1C(=O)O | > 52.4 µg/mL |
| CC(C)C(=O)Nc1ccc(Oc2ccc3c(c2)C(=O)NC3=O)cc1 | < 0.3 µg/mL |
| Cc1ccc(C)c(NC(=O)CSc2nccn2Cc2ccco2)c1 | > 51.2 µg/mL |
| O=C(COc1ccc(Cl)cc1Br)NC1CC1 | > 45.7 µg/mL |
| O=C(CSc1nccc(=O)[nH]1)NCc1ccc2c(c1)OCO2 | > 47.9 µg/mL |
| CN(C(=O)COC(=O)Cc1ccc(Cl)cc1)C1CCCCC1 | > 48.6 µg/mL |
| COc1cccc(CNC(=O)CCC(=O)N2CCOCC2)c1 | > 46 µg/mL |
| CCOC(=O)CCNC(=O)N1CCCC(CNS(=O)(=O)c2cccs2)C1 (centres undefined) | > 60.5 µg/mL |

====

TEST_CONDITIONS: buffer; pH 7.4; 200.0 µM

| MOLECULE | solubility kinetic |
| --- | --- |
| COC(=O)C1(NC(=O)NC2CCCCC2)CCCCC1 | > 42.4 µg/mL |
| O/N=C1\CCCc2c1nc(-c1ccccc1F)n2O | > 39.2 µg/mL |
| CCCN(CCC)S(=O)(=O)c1nc2nc(C)cc(C)n2n1 | > 46.7 µg/mL |
| O=C(N[C@@H](Cc1ccccc1)C(=O)O)c1cccs1 | > 41.3 µg/mL |
| COc1cccc(NC(=O)C(C)SCc2ccccc2)c1 (stereo not given) | > 45.2 µg/mL |
| O=C(Nc1cccc(F)c1)Nc1ccc2c(c1)C(=O)OC2 | < 0.3 µg/mL |
| Cc1ccc(S(=O)(=O)N2CCOCC2)cc1NC(=O)COC(=O)c1ccc(Cl)nc1 | > 68.1 µg/mL |
| Cc1ccc2nsnc2c1NC(=O)c1ccc([N+](=O)[O-])o1 | > 45.6 µg/mL |
| Cc1ccc(S(=O)(=O)N(CCO)Cc2ccccc2)cc1 | > 45.8 µg/mL |
| CCOc1ccc(NC(=S)N(C)C)cc1 | > 33.6 µg/mL |

====

TEST_CONDITIONS: buffer; pH 7.4; 200.0 µM
Below, each of the compounds is paired with its reported solubility kinetic value.
MEASURED_PROPERTY: solubility kinetic

| COMPOUND | MEASURED_PROPERTY | RESULT |
| --- | --- | --- |
| Cn1c(CO)cnc1S(=O)(=O)Cc1c(Cl)cccc1Cl | solubility kinetic | > 50.3 µg/mL |
| CCN(CC)S(=O)(=O)c1cc(NC(=O)NCCCl)ccc1C | solubility kinetic | > 52.2 µg/mL |
| CCCN1CNc2c(c(=O)[nH]c(=S)n2-c2ccccc2Cl)C1 | solubility kinetic | > 50.5 µg/mL |
| COc1cccc2c1OC1(CCN(C(C)C)CC1)N1N=C(c3cccnc3)CC21 (stereo unspecified) | solubility kinetic | > 58.9 µg/mL |
| Cc1cc(=O)[nH]c(-c2ccc(C(F)(F)F)cc2)n1 | solubility kinetic | > 38.1 µg/mL |
| CC(C)[C@H](NC(=O)c1ccccc1)C(=O)O | solubility kinetic | > 33.2 µg/mL |
| COC(=O)c1cc(Br)c(N)cc1OC | solubility kinetic | > 39 µg/mL |
| COc1ccc(Cl)cc1CN1CCOCC1.Cl | solubility kinetic | > 41.7 µg/mL |
| COc1cc2c(cc1OC)CC1(CCCCC1)N=C2.Cl | solubility kinetic | > 44.4 µg/mL |
| CC(C)C[C@H](N)c1nnc(SCc2ccc(Cl)cc2)o1.Cl | solubility kinetic | > 52.2 µg/mL |
| Cl.N[C@H]1C(O)O[C@H](CO)[C@@H](O)[C@@H]1O (stereo partly specified) | solubility kinetic | > 32.3 µg/mL |

====

TEST_CONDITIONS: buffer; pH 7.4; 200.0 µM

| MOLECULE | QUALIFIER | solubility kinetic, µg/mL |
| --- | --- | --- |
| O=C(NCCc1ccccc1)C1CC(=O)N(C2CCCC2)C1 (configuration not stated) | > | 45.1 |
| Cc1noc(C)c1NC(=O)NCCN1CCN(Cc2ccccc2)CC1 | > | 53.6 |
| COc1ccc(CCC(C)NCc2ccccc2OC)cc1 (configuration not stated) | = | 32 |
| O=C(CN1CCCC1)OCCCC1CCCCC1 | = | 17.9 |
| COc1cccc(C(=O)Nc2ccc(C(=O)c3ccccc3)cc2)c1 | = | 7.4 |
| Cc1cc(C)c(NC(=S)N(C)C)cc1C | > | 33.4 |
| COc1ccc(C2SCC(=O)N2Cc2ccccc2)cc1 (configuration not stated) | = | 44.6 |
| CCC(=O)Nc1cc2c3c(c1)CCC(=O)N3CCC2 | > | 38.7 |
| CCn1c(SCC(=O)Nc2ccccc2OC)nc(O)cc1=O | = | 47.7 |
| O=C1CCC(C(=O)N2CCCC2)CN1CCc1cccc(F)c1 (configuration not stated) | > | 47.8 |
| COc1ccc(OCC(=O)Nc2nc3c(s2)CCCC3)cc1 | = | 14.3 |
| O=C(N/N=C/c1ccccc1Br)C1CC1 | > | 40.1 |
| Cc1cc(NC(=O)COc2ccc(C)c(C)c2)no1 | = | 0.7 |
| O=[N+]([O-])c1ccc(Oc2cccc(C(F)(F)F)c2)nc1 | = | 3.5 |
| Cc1c(C(=O)c2ccc(Br)cc2)c(=O)n(C)c(=O)n1C | = | 50.1 |
| Cc1csc2c(N3CCN(C(=O)NC(C)(C)C)CC3)ncnc12 | > | 50 |
| C[C@H](Nc1ccc(C(F)(F)F)cc1[N+](=O)[O-])C(=O)O.[Cl-] | > | 47 |

====

Below, each of the compounds is paired with its reported solubility kinetic value.
TEST_CONDITIONS: buffer; pH 7.4; 200.0 µM
MEASURED_PROPERTY: solubility kinetic

| COMPOUND | MEASURED_PROPERTY | RESULT |
| --- | --- | --- |
| C=CCn1c(O)c(C2=c3ccccc3=NC2=O)c2ccccc21 | solubility kinetic | < 0.3 µg/mL |
| Cc1nn(CC(=O)NC(C)c2ccccc2)c(C)c1[N+](=O)[O-] (stereo not given) | solubility kinetic | > 45.3 µg/mL |
| CC(Nc1cccc(C(=O)NC2CC2)c1)c1nnc(-c2ccccc2)o1 (stereo not given) | solubility kinetic | > 52.3 µg/mL |
| CC(NS(=O)(=O)c1ccc2c(c1)CC(=O)N2C)c1ccccc1 (stereo not given) | solubility kinetic | > 49.6 µg/mL |
| Cc1nc(COc2cccc(Cl)c2)sc1C(=O)/C=C/N(C)C | solubility kinetic | > 50.5 µg/mL |

====

TEST_CONDITIONS: buffer; pH 7.4; 200.0 µM
MEASURED_PROPERTY: solubility kinetic

| COMPOUND | RESULT |
| --- | --- |
| CCCN(C(=O)/C=C/c1ccc(S(=O)(=O)N(CC)CC)cc1)C1CCS(=O)(=O)C1 (stereo not given) | > 66.4 µg/mL |
| CC(=O)C1C(c2ccc(Cl)cc2)c2c(noc2C)CC1(C)O (stereo not given) | > 48 µg/mL |
| COCCNC(=O)C(OC(=O)C1=Cc2ccccc2OC1)C(C)C (stereo not given) | > 50 µg/mL |
| O=C(O)CCc1ccc(-c2ccccc2)n1-c1cccc(C(=O)O)c1 | > 50.3 µg/mL |
| Cc1cccc(NC(=S)N2CCN(C(=O)c3ccco3)CC2)c1 | > 49.4 µg/mL |
| COc1ccc(S(=O)(=O)N2CC(=O)Nc3ccccc32)cc1 | > 47.8 µg/mL |
| COc1cccc(C(=O)NCc2ccco2)c1OC | > 39.2 µg/mL |
| O=S(=O)(c1ccc(NCCCO)nc1)N1CCOCC1 | > 45.2 µg/mL |
| CCOc1ccc2[nH]c3c(NCCN(C)C)ncnc3c2c1 | > 44.9 µg/mL |
| COCC(=O)N1CCCC(C(=O)c2ccc(C(F)(F)F)cc2)C1 (stereo not given) | > 49.4 µg/mL |

====

Below, each of the compounds is paired with its reported solubility kinetic value.
TEST_CONDITIONS: buffer; pH 7.4; 200.0 µM
MEASURED_PROPERTY: solubility kinetic

| COMPOUND | RESULT |
| --- | --- |
| CCCOc1ccc(/C=C/C(=O)N2CCOCC2)cc1 | > 41.3 µg/mL |
| COC(=O)c1cnc[nH]1 | > 18.9 µg/mL |
| CSc1ccc(CNCCCSc2ncccn2)cc1.Cl | > 51.3 µg/mL |
| CCC(=O)O/N=C(\N)c1ccc(Oc2cc(C)c(Cl)c(C)c2)c([N+](=O)[O-])c1 | < 0.3 µg/mL |
| CC(=O)NCCNS(=O)(=O)c1ccc(C)c([N+](=O)[O-])c1 | > 45.2 µg/mL |
| N#CC1(NC(=O)COC(=O)CN2C(=O)c3ccccc3C2=O)CCCCC1 | > 55.4 µg/mL |
| c1ccn2cc(-c3ccc4c(c3)OCCO4)nc2c1 | > 37.8 µg/mL |
| COCCCN(CC(=O)Nc1ccc(F)cc1)S(=O)(=O)c1cccs1 | > 58 µg/mL |
| CCN1CC(CN(C)Cc2nc(Cc3ccccc3)no2)CC1=O (configuration not stated) | > 49.3 µg/mL |
| O=C(OCc1c(F)cccc1Cl)c1cnc(Cl)c(Cl)c1 | < 0.7 µg/mL |
| Cl.Clc1ccc(NCc2ccsc2)cc1 | 2.7 µg/mL |
| Cc1ccc(C)c(SCC(=O)Nc2cccnc2Cl)c1 | 2.9 µg/mL |
| CCN(C(=O)CSc1nc(C)cc(=O)[nH]1)C1CCCCC1 | > 46.4 µg/mL |
| COc1ccc(CNC(=O)COC(=O)c2cccn2C)cc1 | > 45.3 µg/mL |
| CN(C)C(=O)CN1C(=O)NC2(CCCc3ccccc32)C1=O (configuration not stated) | > 45.2 µg/mL |
| Cc1ccc(NS(=O)(=O)c2cccs2)c(C)c1 | 39.1 µg/mL |
| CN1CCN(C(=O)c2cc(Br)cn2C)CC1 | > 42.9 µg/mL |
